The following compounds are shown together with reported growth values.
- System: HOP-62 NSCLC
- test: NCI-60 one-dose screen, 48 h (100 = growth as untreated, 0 = no growth, -100 = all killed)
- experimental.parameters: 10 µM unless noted
- Description: Growth inhibition of the HOP-62 human Non-Small Cell Lung tumor cell line is measured as a screen for anti-cancer activity. Cells are grown in 96 well plates and exposed to the test compound for 48 hours. Compounds are tested at a single concentration, which is 10^-5 M for most compounds. The reported endpoint is percent growth (GI% or GIPRCNT), where numbers from 0 - 100% represent growth inhibition, and numbers from -100% - 0 represent cell death. […]
The panel holds about 83,000 compounds, 20% with a hit somewhere; the sample as a whole holds those more often.
Answer with a number only, understood to be in %.

# example entries with known answers
>  <compound>
N#C/C(=C\c1ccc(-c2ccccc2F)o1)c1nc(-c2ccco2)cs1

>  <value.reported>
89

$$$$
>  <compound>
COc1cc(/C=N/Nc2ncc(-c3cc4cc5c(cc4o3)OCO5)s2)cc(OC)c1OC

>  <value.reported>
81

$$$$
>  <compound>
CN(c1ccccc1)c1ccc2c(c1)OCCC21CC1Nc1cnccc1C(=O)O (centres undefined)

>  <value.reported>
63.2

$$$$
>  <compound>
COc1ccc(C(=O)Nn2c(NCC(=O)N3c4ccccc4Sc4ccccc43)nnc2-c2ccc(O)cc2)cc1

>  <value.reported>
103

$$$$

API: the following record is the query input.
Q: Annotate the compound CCCCCCCCCOc1c(OC)cc(C2CC(=O)Nc3c2c(C)nn3-c2nc3ccccc3[nH]2)cc1OC (centres undefined) with its measured growth.
Result: -32.9

* * *

- Tested on: PC-3 prostate
- test: NCI-60 one-dose screen, 48 h
- experimental.parameters: 10 µM unless noted
Compounds without any hit were thinned out: in the full panel of roughly 83,000, 20% have a hit. Activity calls are given as the source filed them. How the source made its calls: active means growth percent below 10; inactive means the rest.
Entry note: the call must match one of label 1 (active), label 0 (inactive)

>  <compound>
Cc1ccc(Nc2ccc(Nc3ccc(C)cc3)c3c2C(=O)c2cccc(O)c2C3=O)cc1

>  <label.value>
label 0

$$$$
>  <compound>
Cc1cc(=O)oc2c1ccc1oc(C#N)c(C)c12

>  <label.value>
label 0

$$$$
>  <compound>
Cc1cc(C(=O)c2ccccc2)c(C)c2c1[nH]c1ccc(Cl)cc12

>  <label.value>
label 0

$$$$
>  <compound>
Cc1ccc(S(=O)(=O)Oc2cc(OS(=O)(=O)c3ccc(C)cc3)cc(OS(=O)(=O)c3ccc(C)cc3)c2)cc1

>  <label.value>
label 0

$$$$
>  <compound>
N#Cc1c2c(nn(-c3ccccc3)c1=O)C(O)=C([N+](=O)[O-])C(c1ccccc1)C2 (stereo unspecified)

>  <label.value>
label 0

$$$$

Q: Short answer needed: outcome of this test for Cn1c2c(c3ccc(Cl)c(Cl)c31)C(C#N)C1(CCNCC1)NC2=O (stereo unspecified) ?
Result: label 0

Q: Please state the recorded outcome for this compound: COCCN(C(=O)c1ccc(F)cc1F)c1c(N)n(Cc2ccccc2)c(=O)[nH]c1=O
Result: label 0

Q: Just curious, what result did Cc1nc2c(c(N3CCCc4ccccc43)n1)CCC2 get here?
Result: label 0

Q: // param item: CC1=NOC(=O)/C1=C\c1ccc(O)cc1 ; yields the recorded call
Result: label 0
